# credit: patent US8664391B2

Assayed Target: CYP2C19 (Homo sapiens, UniProt P33261)
Construct: host or cells: E. coli
Sequence (P33261 whole entry): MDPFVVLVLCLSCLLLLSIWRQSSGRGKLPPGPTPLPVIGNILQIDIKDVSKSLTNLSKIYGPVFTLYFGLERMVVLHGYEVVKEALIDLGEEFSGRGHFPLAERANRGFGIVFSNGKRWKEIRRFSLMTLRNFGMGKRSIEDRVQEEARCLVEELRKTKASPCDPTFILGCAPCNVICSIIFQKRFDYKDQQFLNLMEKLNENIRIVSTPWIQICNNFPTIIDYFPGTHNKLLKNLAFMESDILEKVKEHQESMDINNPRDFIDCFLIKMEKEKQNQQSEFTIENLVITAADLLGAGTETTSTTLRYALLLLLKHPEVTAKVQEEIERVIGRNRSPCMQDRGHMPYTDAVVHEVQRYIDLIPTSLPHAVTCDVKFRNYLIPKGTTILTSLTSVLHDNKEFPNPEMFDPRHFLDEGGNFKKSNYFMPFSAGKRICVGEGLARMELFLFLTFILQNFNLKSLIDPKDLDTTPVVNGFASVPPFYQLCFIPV
Test: CYP450 inhibition, fluorescent substrate assay, CYP2C19
Assay type: biochemical
Condition Description: E. coli expressed CYP2C19, pH 7.4, probe CEC (25 μM), 10 μM test compound, substrate CEC 25 μM, read-out: 2C19-CEC % inh.
Recorded Metric: inhibition at 30 min, 10 μM (%)
Numbers only, in %.

Examples with their reported inhibition at 30 min, 10 μM follow.
• CC(C)CN(C[C@@H](O)[C@H](Cc1ccccc1)NC(=O)OCc1cncs1)C(=O)CCc1cncs1 = 86
• CC(C)CN(C[C@@H](O)[C@H](Cc1ccccc1)NC(=O)OCc1cncs1)C(=O)c1cnc2ccccc2n1 = 81

Attention now shifts to the item below.
q: Entry under review: `CC(C)CN(C[C@@H](O)[C@H](Cc1ccccc1)NC(=O)OCc1cncs1)C(=O)c1ccc(F)cc1` . Reported inhibition at 30 min, 10 μM?
a: 94

----------
For each record, write down the corresponding inhibition at 10 min, 10 μM.
Assayed Target: CYP3A4 (Homo sapiens, UniProt P08684)
Construct: host or cells: E. coli
Sequence (P08684 whole entry): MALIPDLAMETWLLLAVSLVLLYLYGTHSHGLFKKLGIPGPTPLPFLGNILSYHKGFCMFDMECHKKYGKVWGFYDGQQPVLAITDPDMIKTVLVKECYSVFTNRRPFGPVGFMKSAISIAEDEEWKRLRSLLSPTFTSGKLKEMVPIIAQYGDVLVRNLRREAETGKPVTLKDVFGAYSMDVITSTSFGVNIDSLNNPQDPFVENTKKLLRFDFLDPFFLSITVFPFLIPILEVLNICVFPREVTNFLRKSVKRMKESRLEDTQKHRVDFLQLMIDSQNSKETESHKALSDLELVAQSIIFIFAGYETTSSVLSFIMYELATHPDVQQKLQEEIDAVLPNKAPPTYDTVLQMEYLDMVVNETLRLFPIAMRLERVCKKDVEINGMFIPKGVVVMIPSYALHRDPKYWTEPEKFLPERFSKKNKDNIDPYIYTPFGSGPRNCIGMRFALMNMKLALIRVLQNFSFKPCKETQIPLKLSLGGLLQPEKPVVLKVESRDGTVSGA
Test: CYP450 inhibition, fluorescent substrate assay, CYP3A4
Assay type: biochemical
Condition Description: E. coli expressed CYP3A4, pH 7.4, probe DBF (1 μM), 10 μM test compound, substrate DBF 1 μM, 10 min, read-out: 3A4-DBF % inh.
Answers are plain numbers, in %.

Solved cases below.
* CC(C)(O)CN(C[C@@H](O)[C@H](Cc1ccccc1)NC(=O)OCc1cncs1)C(=O)c1ccncc1 | 84
* CC(C)CN(C[C@@H](O)[C@H](Cc1ccccc1)NC(=O)OCc1cncs1)C(=O)c1ccc(Cl)cc1 | 92
* COc1cccc(C(=O)N(CC(C)C)C[C@@H](O)[C@H](Cc2ccccc2)NC(=O)OCc2cncs2)c1 | 94
* CC(C)CN(C[C@@H](O)[C@H](Cc1ccccc1)NC(=O)OCc1cncs1)C(=O)c1ccc[nH]1 | 91
* CC(C)(C)CN(C[C@@H](O)[C@H](Cc1ccccc1)NC(=O)OCc1cncs1)C(=O)c1ccncc1 | 89

Working through the 2 compounds below one at a time, give inhibition at 10 min, 10 μM for each.
1. CC(C)CN(C[C@@H](O)[C@H](Cc1ccccc1)NC(=O)OCc1cncs1)C(=O)c1ccc(Br)cc1
2. CC(C)CN(C[C@@H](O)[C@H](Cc1ccccc1)NC(=O)OCc1cccnc1)C(=O)c1ccncc1

a:
[94, 85]

q: Fill blank: measured inhibition at 10 min, 10 μM of the compound `O=C(N[C@@H](Cc1ccccc1)[C@H](O)CN(CC1CCCCC1)C(=O)c1ccncc1)OCc1cncs1` is ____.
a: 90

----------
Assayed Target: CYP2D6 (Homo sapiens, UniProt P10635)
Construct: host or cells: E. coli
Sequence (P10635 whole entry): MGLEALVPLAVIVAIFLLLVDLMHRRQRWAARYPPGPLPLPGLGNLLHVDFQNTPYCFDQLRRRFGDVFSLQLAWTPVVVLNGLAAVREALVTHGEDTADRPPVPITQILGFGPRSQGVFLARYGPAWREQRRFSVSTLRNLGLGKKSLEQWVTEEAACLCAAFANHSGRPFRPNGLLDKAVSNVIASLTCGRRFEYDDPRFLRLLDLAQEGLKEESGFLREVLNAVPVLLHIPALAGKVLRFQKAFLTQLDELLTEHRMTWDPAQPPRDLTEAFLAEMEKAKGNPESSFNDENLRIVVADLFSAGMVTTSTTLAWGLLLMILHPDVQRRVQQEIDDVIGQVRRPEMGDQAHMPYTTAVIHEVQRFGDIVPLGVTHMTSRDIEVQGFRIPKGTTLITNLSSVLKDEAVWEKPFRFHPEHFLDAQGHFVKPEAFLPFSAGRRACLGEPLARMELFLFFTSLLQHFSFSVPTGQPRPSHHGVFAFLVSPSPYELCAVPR
Test: CYP450 inhibition, fluorescent substrate assay, CYP2D6
Type: biochemical
Condition Description: E. coli expressed CYP2D6, pH 7.4, probe AMMC (3 μM), 10 μM test compound, substrate AMMC 3 μM, read-out: 2D6-AMMC % inh.
For each record, write down the corresponding inhibition at 45 min, 10 μM.
One number for each entry, in %.

Known results for compounds:
* CC(C)CN(C[C@@H](O)[C@H](Cc1ccccc1)NC(=O)OCc1cncs1)C(=O)c1ccc(Cl)cc1 | 43
* CC(C)CN(C[C@@H](O)[C@H](Cc1ccccc1)NC(=O)OCc1cncs1)C(=O)c1cccnc1 | 64
* CC(C)CN(C[C@@H](O)[C@H](Cc1ccccc1)NC(=O)OCc1cncs1)C(=O)c1cccc(Br)c1 | 46

Provide the reported inhibition at 45 min, 10 μM of each entry below, same order.
1. COc1cccc(C(=O)N(CC(C)C)C[C@@H](O)[C@H](Cc2ccccc2)NC(=O)OCc2cncs2)c1
2. CC(C)CN(C[C@@H](O)[C@H](Cc1ccccc1)NC(=O)OCc1cncs1)C(=O)c1ccncc1
3. O=C(N[C@@H](Cc1ccccc1)[C@H](O)CN(CC1CCCCC1)C(=O)c1ccncc1)OCc1cncs1
4. CC(C)(C)CN(C[C@@H](O)[C@H](Cc1ccccc1)NC(=O)OCc1cncs1)C(=O)c1ccncc1

a:
1: 45; 2: 39; 3: 86; 4: 62

----------
Assayed Target: CYP3A4 (Homo sapiens, UniProt P08684)
Construct: host or cells: E. coli
Test: CYP450 inhibition, fluorescent substrate assay, CYP3A4
Format: biochemical
Condition Description: E. coli expressed CYP3A4, pH 7.4, probe BFC (150 μM), 10 μM test compound, substrate BFC 150 μM, 30 min, read-out: 3A4-BFC % inh.
Can you tell me inhibition at 30 min, 10 μM for the items I'm about to list?
Answers are plain numbers, in %.

# per-item lookup of inhibition at 30 min, 10 μM; items listed below
1. CC(C)CN(C[C@@H](O)[C@H](Cc1ccccc1)NC(=O)OCc1cncs1)C(=O)c1cnc2ccccc2n1 [Compound C12]
2. COc1cccc(C(=O)N(CC(C)C)C[C@@H](O)[C@H](Cc2ccccc2)NC(=O)OCc2cncs2)c1 [Compound C7]

a:
70
92

Quick batch: inhibition at 30 min, 10 μM for everything below.
1. CC(C)CN(C[C@@H](O)[C@H](Cc1ccccc1)NC(=O)OCc1cncs1)C(=O)CCc1cncs1 [Compound C24]
2. CC(C)CN(C[C@@H](O)[C@H](Cc1ccccc1)NC(=O)OCc1cncs1)C(=O)c1ccc[nH]1 [Compound C14]

a:
1: 101; 2: 84

----------
Assayed Target: CYP2D6 (Homo sapiens, UniProt P10635)
Construct: host or cells: E. coli
Test: CYP450 inhibition, fluorescent substrate assay, CYP2D6
Format: biochemical
Condition Description: E. coli expressed CYP2D6, pH 7.4, probe AMMC (3 μM), 10 μM test compound, substrate AMMC 3 μM, read-out: 2D6-AMMC % inh.
Exercise: for every item that follows, state its recorded inhibition at 45 min, 10 μM.
Numbers only, in %.

Consider the reported inhibition at 45 min, 10 μM for these compounds:
- Cc1cccc(C(=O)N(CC(C)C)C[C@@H](O)[C@H](Cc2ccccc2)NC(=O)OCc2cncs2)c1: 62
- CC(C)CN(C[C@@H](O)[C@H](Cc1ccccc1)NC(=O)OCc1cncs1)C(=O)c1ccc(Br)cc1: 64
- Cc1ccc(C(=O)N(CC(C)C)C[C@@H](O)[C@H](Cc2ccccc2)NC(=O)OCc2cncs2)cc1: 49
- COc1ccc(C(=O)N(CC(C)C)C[C@@H](O)[C@H](Cc2ccccc2)NC(=O)OCc2cncs2)cc1: 41

// for each compound below, give its inhibition at 45 min, 10 μM
1. CC(C)CN(C[C@@H](O)[C@H](Cc1ccccc1)NC(=O)OCc1cncs1)C(=O)c1ccc[nH]1
2. CC(C)CN(C[C@@H](O)[C@H](Cc1ccccc1)NC(=O)OCc1cncs1)C(=O)c1ccc2occc2c1
3. CC(C)CN(C[C@@H](O)[C@H](Cc1ccccc1)NC(=O)OCc1cccnc1)C(=O)c1ccncc1

a:
1: 67; 2: 102; 3: 13

----------
Assayed Target: CYP2C19 (Homo sapiens, UniProt P33261)
Construct: host or cells: E. coli
Test: CYP450 inhibition, fluorescent substrate assay, CYP2C19
Assay type: biochemical
Condition Description: pH 7.4, 10 μM test compound, substrate CEC 25 μM, read-out: 2C19-CEC % inh.
Consider the following molecules; for each one, report its inhibition at 30 min, 10 μM.
Write the figure, then the unit, nothing else.

* CC(C)CN(C[C@@H](O)[C@H](Cc1ccccc1)NC(=O)OCc1cncs1)C(=O)c1ccc2c(c1)OCO2 | 94%

Here's the next entry for you.
q: Given the molecule `CC(C)CN(C[C@@H](O)[C@H](Cc1ccccc1)NC(=O)OCc1cncs1)C(=O)c1ccco1` , what is its reported inhibition at 30 min, 10 μM?
a: 75%

----------
Assayed Target: CYP3A4 (Homo sapiens, UniProt P08684)
Construct: host or cells: E. coli
Test: CYP450 inhibition, fluorescent substrate assay, CYP3A4
Type: biochemical
Condition Description: E. coli expressed CYP3A4, pH 7.4, probe BFC (150 μM), 10 μM test compound, substrate BFC 150 μM, 30 min, read-out: 3A4-BFC % inh.
Kindly return Yes if reported inhibition at 30 min, 10 μM is no lower than 90%; return No if it is lower.

Solved entries (count: 5):
• CC(C)CN(C[C@@H](O)[C@H](Cc1ccccc1)NC(=O)OCc1cncs1)C(=O)c1cccc(Cl)c1 = No
• Cc1cccc(C(=O)N(CC(C)C)C[C@@H](O)[C@H](Cc2ccccc2)NC(=O)OCc2cncs2)c1 = Yes
• CC(C)(C)CN(C[C@@H](O)[C@H](Cc1ccccc1)NC(=O)OCc1cncs1)C(=O)c1ccncc1 = Yes
• CC(C)CN(C[C@@H](O)[C@H](Cc1ccccc1)NC(=O)OCc1cncs1)C(=O)c1ccc(Cl)cc1 = No
• CC(C)CN(C[C@@H](O)[C@H](Cc1ccccc1)NC(=O)OCc1cncs1)C(=O)OCc1cncs1 = Yes

q: Record `CC(C)CN(C[C@@H](O)[C@H](Cc1ccccc1)NC(=O)OCc1cncs1)C(=O)c1cccc(C(F)(F)F)c1` ; criterion: inhibition at 30 min, 10 μM no lower than 90%. Met?
a: Yes

q: Tell me whether inhibition at 30 min, 10 μM is at least 90% here: `CC(C)CN(C[C@@H](O)[C@H](Cc1ccccc1)NC(=O)OCc1cncs1)C(=O)c1cccnc1`
a: No

q: Could you tell me if the measured inhibition at 30 min, 10 μM of `CC(C)CN(C[C@@H](O)[C@H](Cc1ccccc1)NC(=O)OCc1cncs1)C(=O)c1ccc(Br)cc1` reaches 90% or more?
a: No

q: State whether the measured inhibition at 30 min, 10 μM reaches 90%, counting equality as reaching it, for `CC(C)(O)CN(C[C@@H](O)[C@H](Cc1ccccc1)NC(=O)OCc1cncs1)C(=O)c1ccncc1`
a: Yes
